biological target: Exportin-1 (Homo sapiens); assay: Inhibition of XPO1 in PMA/ionomycin-activated human Jurkat cells expressing IL-2 promoter reporter gene assessed as suppression of IL-2 transcriptional activity incubated for 6 hrs by Bright-Glo Luciferase assay
Sequence (O14980 whole entry): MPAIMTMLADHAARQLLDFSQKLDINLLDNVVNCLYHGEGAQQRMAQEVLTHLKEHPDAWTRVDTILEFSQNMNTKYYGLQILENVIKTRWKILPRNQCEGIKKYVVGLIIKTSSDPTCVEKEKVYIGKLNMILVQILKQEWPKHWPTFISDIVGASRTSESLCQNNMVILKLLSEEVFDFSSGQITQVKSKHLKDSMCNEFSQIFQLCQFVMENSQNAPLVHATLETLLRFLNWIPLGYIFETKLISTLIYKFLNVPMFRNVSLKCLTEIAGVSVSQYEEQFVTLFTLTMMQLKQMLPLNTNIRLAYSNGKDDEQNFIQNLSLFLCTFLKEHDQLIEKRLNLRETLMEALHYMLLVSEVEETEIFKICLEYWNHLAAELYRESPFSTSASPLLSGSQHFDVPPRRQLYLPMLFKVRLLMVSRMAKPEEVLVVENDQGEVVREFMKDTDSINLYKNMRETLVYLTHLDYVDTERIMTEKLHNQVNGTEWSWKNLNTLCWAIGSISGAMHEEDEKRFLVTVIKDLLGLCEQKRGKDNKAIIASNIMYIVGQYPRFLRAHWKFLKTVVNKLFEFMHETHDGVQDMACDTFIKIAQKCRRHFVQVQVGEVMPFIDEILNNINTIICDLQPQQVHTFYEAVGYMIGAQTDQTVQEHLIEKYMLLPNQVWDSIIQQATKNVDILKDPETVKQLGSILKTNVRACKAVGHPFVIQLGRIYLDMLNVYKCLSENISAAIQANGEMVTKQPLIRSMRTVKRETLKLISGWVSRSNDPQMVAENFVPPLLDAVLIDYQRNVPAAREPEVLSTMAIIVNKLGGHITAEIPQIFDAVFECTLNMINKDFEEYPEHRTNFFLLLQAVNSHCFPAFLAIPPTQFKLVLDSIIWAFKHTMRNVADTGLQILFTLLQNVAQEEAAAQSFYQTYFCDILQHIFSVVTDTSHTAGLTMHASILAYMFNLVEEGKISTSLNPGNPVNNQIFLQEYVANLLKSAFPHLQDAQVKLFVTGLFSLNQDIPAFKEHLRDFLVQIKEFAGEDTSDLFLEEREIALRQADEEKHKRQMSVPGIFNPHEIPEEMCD
quantity-name: log10 of EC50 (log10 of the value in nM)
Heads up, the numbers here are log10 of EC50 in nM units.

Worked cases, log10 of EC50 given:
- CC1=CC(=O)N(Nc2cc(N3CC(F)(F)C3)c(C(F)(F)F)cn2)C1=O: 1.78
- CC1=CC(=O)N(N(C)c2ccc(C(F)(F)F)c(N3CC(F)(F)C3)n2)C1=O: 0.85
- CC1=CC(=O)N(Nc2cc(C(F)(F)F)cc(C(F)(F)F)n2)C1=O: 1.26
- CC1=CC(=O)N(Nc2nc(N3CCCC3)nn3cccc23)C1=O: 1.53
- CC1=CC(=O)N(Nc2nc(-c3cccs3)nn3cccc23)C1=O: 1.65

Recorded log10 of EC50 of CC1=CC(=O)N(Nc2ccc3cn[nH]c3n2)C1=O , please.
3.26

Recorded log10 of EC50 of CC1=CC(=O)N(N(C)c2nc(N(C)C3CCCC3)nn3cccc23)C1=O , please.
1.98

Recorded log10 of EC50 of CC1=CC(=O)N(N(C)c2nc(N(C)CC3CC3)nn3cccc23)C1=O , please.
1.46

Recorded log10 of EC50 of CC1=CC(=O)N(Nc2cc(C(F)(F)F)c(C(F)(F)F)cn2)C1=O , please.
0.97

Recorded log10 of EC50 of CC1=CC(=O)N(N(C)c2ccc(C(F)(F)F)c(N3CCCCC3)n2)C1=O , please.
0.72

---

experiment: Metabolic stability in mouse liver microsome assessed as intrinsic clearance; type: ADME; conditions: liver microsomes, read-out: CLH
Listed next: entries and their corresponding microsomal CLint.

Worked cases, microsomal CLint given:
• CC1=CC(=O)N(Nc2ncc(C(F)(F)F)c(Cl)n2)C1=O = 70 µL/min/mg
• CC1=CC(=O)N(Nc2ccc(C(F)(F)F)c(N3CC4CC4C3)n2)C1=O (stereo not given) = > 139 µL/min/mg
• CC1=CC(=O)N(Nc2ccc(C(F)(F)F)c(C3CCCC3)n2)C1=O = > 139 µL/min/mg

Recorded microsomal CLint of O=C(Nc1cc(C(F)(F)F)cc(C(F)(F)F)c1)c1cnc(Cl)nc1C(F)(F)F , please.
> 139 µL/min/mg

Recorded microsomal CLint of CC1=CC(=O)N(Nc2ccc(C(F)(F)F)c(N3CCCC3)n2)C1=O , please.
> 139 µL/min/mg

---

test: Metabolic stability in mouse liver microsome assessed as half life; assay type: ADME; details: liver microsomes
Listed next: entries and their corresponding half-life.

Worked cases, half-life given:
• CC1=CC(=O)N(Nc2nc(N3CCCC3)nn3cccc23)C1=O = > 60 min
• CC1=CC(=O)N(Nc2ccc(C(F)(F)F)c(N3CC(F)(F)C3)n2)C1=O = < 10 min
• CC1=CC(=O)N(N(C)c2nc(N(C)CC3CC3)nn3cccc23)C1=O = 8.5 min
• CC1=CC(=O)N(Nc2ccc(C(F)(F)F)c(N3CCC3)n2)C1=O = < 10 min

Recorded half-life of CC1=CC(=O)N(Nc2ccc(C(F)(F)F)c(Cl)n2)C1=O , please.
26.1 min

Recorded half-life of CC1=CC(=O)N(Nc2nc(-c3ccccc3)nn3cccc23)C1=O , please.
75 min

Recorded half-life of CC1=CC(=O)N(Nc2ccc(C(F)(F)F)c(N3CCCC3)n2)C1=O , please.
< 10 min

Recorded half-life of COc1cccc2nc(-c3cccs3)nc(NN3C(=O)C=C(C)C3=O)c12 , please.
< 10 min

Recorded half-life of CC1=CC(=O)N(Nc2nc(Cl)c(C(F)(F)F)cc2F)C1=O , please.
11.4 min

Recorded half-life of CC1=CC(=O)N(Nc2ccc(C(F)(F)F)c(N3CC4CC4C3)n2)C1=O (stereo unspecified) , please.
< 10 min

Recorded half-life of CC1=CC(=O)N(Nc2ncc(C(F)(F)F)c(Cl)n2)C1=O , please.
19.9 min

Recorded half-life of CC1=CC(=O)N(Nc2nc(N(C)CC3CC3)nn3cccc23)C1=O , please.
2.6 min

Recorded half-life of CC1=CC(=O)N(Nc2ccc(C(F)(F)F)c(C3CCCC3)n2)C1=O , please.
< 10 min

Recorded half-life of CC1=CC(=O)N(Nc2cc(C(F)(F)F)cc(C(F)(F)F)c2)C1=O , please.
> 60 min

Recorded half-life of O=C(Nc1cc(C(F)(F)F)cc(C(F)(F)F)c1)c1cnc(Cl)nc1C(F)(F)F , please.
< 10 min

Recorded half-life of CC1=CC(=O)N(Nc2nc(C(F)(F)F)nn3cccc23)C1=O , please.
> 60 min
